System: MCF7 multi-cell spheroids with HUVEC/MSC, viability
ASSAY_REMARKS: Anticancer human tumor MCF7 cell line growth inhibition [IpAb]; active = viability on the fitted dose curve at most 10% of control; inactive = the rest;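 also: spheroids exposed to agents for seven days before readout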
REPORTED_CONDITIONS: second compound 0.1 µM; first compound 10 µM
Just give me one of these, please: 1 (yes) (active), 0 (no) (inactive)

Status in this test for Cn1nccc1Nc1nccc(-c2ccn(C(CO)c3ccc(Cl)c(F)c3)c(=O)c2)n1 (stereo not given) + CCN1CCN(Cc2ccc(Nc3ncc(F)c(-c4cc(F)c5nc(C)n(C(C)C)c5c4)n3)nc2)CC1 ?
0 (no)

Status in this test for CC1(C)CCC(CN2CCN(c3ccc(C(=O)NS(=O)(=O)c4ccc(NCC5CCOCC5)c([N+](=O)[O-])c4)c(Oc4cnc5[nH]ccc5c4)c3)CC2)=C(c2ccc(Cl)cc2)C1 + CC(C)NCC(C(=O)N1CCN(c2ncnc3c2C(C)CC3O)CC1)c1ccc(Cl)cc1 ?
0 (no)

Status in this test for Cn1ncc(Cl)c1-c1cc(C(=O)NC(CN)Cc2cccc(F)c2)sc1Cl (stereo not given) + CCN1CCN(Cc2ccc(Nc3ncc(F)c(-c4cc(F)c5nc(C)n(C(C)C)c5c4)n3)nc2)CC1 ?
1 (yes)

Status in this test for Cc1nc(NC(=O)N2CCCC2C(N)=O)sc1-c1ccnc(C(C)(C)C(F)(F)F)c1 (stereo not given) + CC(C)NCC(C(=O)N1CCN(c2ncnc3c2C(C)CC3O)CC1)c1ccc(Cl)cc1 ?
0 (no)

Status in this test for Cn1ncc(Cl)c1-c1cc(C(=O)NC(CN)Cc2cccc(F)c2)sc1Cl (stereo not given) + CC(C)NCC(C(=O)N1CCN(c2ncnc3c2C(C)CC3O)CC1)c1ccc(Cl)cc1 ?
1 (yes)

====

Tested on: MCF7 multi-cell spheroids with HUVEC/MSC, viability
ASSAY_REMARKS: Anticancer human tumor MCF7 cell line growth inhibition [IpAb];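 also: spheroids exposed to agents for seven days before readout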
REPORTED_CONDITIONS: second compound 1 µM; first compound 0.001 µM; hits give low values
Consider the following compounds; for each one, report its viability, T/C.
Numbers only, in %.

// solved cases for viability, T/C follow
COMPOUND	TARGET_ENTITY	READOUT_NUMBER
Cn1ncnc1[C@H]1c2n[nH]c(=O)c3cc(F)cc(c23)N[C@@H]1c1ccc(F)cc1 + CCN1CCN(Cc2ccc(Nc3ncc(F)c(-c4cc(F)c5nc(C)n(C(C)C)c5c4)n3)nc2)CC1	MCF7 multi-cell spheroids with HUVEC/MSC, viability	105
Cn1ncnc1[C@H]1c2n[nH]c(=O)c3cc(F)cc(c23)N[C@@H]1c1ccc(F)cc1 + CC(C)NCC(C(=O)N1CCN(c2ncnc3c2C(C)CC3O)CC1)c1ccc(Cl)cc1	MCF7 multi-cell spheroids with HUVEC/MSC, viability	75.6
CC(C)n1nc(-c2ccc3oc(N)nc3c2)c2c(N)ncnc21 + CCN1CCN(Cc2ccc(Nc3ncc(F)c(-c4cc(F)c5nc(C)n(C(C)C)c5c4)n3)nc2)CC1	MCF7 multi-cell spheroids with HUVEC/MSC, viability	83.1

Next:
Which viability, T/C value belongs to CC(C)n1nc(-c2ccc3oc(N)nc3c2)c2c(N)ncnc21 + CC(C)NCC(C(=O)N1CCN(c2ncnc3c2C(C)CC3O)CC1)c1ccc(Cl)cc1 ?
64.8

====

Tested on: MCF7 multi-cell spheroids with HUVEC/MSC, viability
ASSAY_REMARKS: Anticancer human tumor MCF7 cell line growth inhibition [IpAb];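 also: spheroids exposed to agents for seven days before readout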
REPORTED_CONDITIONS: second compound 0.1 µM; first compound 3.16 µM; hits give low values
OBSERVATION_TYPE: viability, T/C (%)
One number for each entry, in %.

COMPOUND	VALUE_UNIT	READOUT_NUMBER
Cn1ncc(Cl)c1-c1cc(C(=O)NC(CN)Cc2cccc(F)c2)sc1Cl (stereo not given) + CC(C)NCC(C(=O)N1CCN(c2ncnc3c2C(C)CC3O)CC1)c1ccc(Cl)cc1	%	3.8
Cc1nc(NC(=O)N2CCCC2C(N)=O)sc1-c1ccnc(C(C)(C)C(F)(F)F)c1 (stereo not given) + CC(C)NCC(C(=O)N1CCN(c2ncnc3c2C(C)CC3O)CC1)c1ccc(Cl)cc1	%	49.6
C=CCn1c(=O)c2cnc(Nc3ccc(N4CCN(C)CC4)cc3)nc2n1-c1cccc(C(C)(C)O)n1 + CC(C)NCC(C(=O)N1CCN(c2ncnc3c2C(C)CC3O)CC1)c1ccc(Cl)cc1	%	26.3
CC1(C)CCC(CN2CCN(c3ccc(C(=O)NS(=O)(=O)c4ccc(NCC5CCOCC5)c([N+](=O)[O-])c4)c(Oc4cnc5[nH]ccc5c4)c3)CC2)=C(c2ccc(Cl)cc2)C1 + CC(C)NCC(C(=O)N1CCN(c2ncnc3c2C(C)CC3O)CC1)c1ccc(Cl)cc1	%	84.9
CCCS(=O)(=O)Nc1ccc(F)c(C(=O)c2c[nH]c3ncc(-c4ccc(Cl)cc4)cc23)c1F + CC(C)NCC(C(=O)N1CCN(c2ncnc3c2C(C)CC3O)CC1)c1ccc(Cl)cc1	%	98.5
Cn1ncc(Cl)c1-c1cc(C(=O)NC(CN)Cc2cccc(F)c2)sc1Cl (stereo not given) + CCN1CCN(Cc2ccc(Nc3ncc(F)c(-c4cc(F)c5nc(C)n(C(C)C)c5c4)n3)nc2)CC1	%	5.55
CC1(C)CCC(CN2CCN(c3ccc(C(=O)NS(=O)(=O)c4ccc(NCC5CCOCC5)c([N+](=O)[O-])c4)c(Oc4cnc5[nH]ccc5c4)c3)CC2)=C(c2ccc(Cl)cc2)C1 + CCN1CCN(Cc2ccc(Nc3ncc(F)c(-c4cc(F)c5nc(C)n(C(C)C)c5c4)n3)nc2)CC1	%	104
Cn1nccc1Nc1nccc(-c2ccn(C(CO)c3ccc(Cl)c(F)c3)c(=O)c2)n1 (stereo not given) + CC(C)NCC(C(=O)N1CCN(c2ncnc3c2C(C)CC3O)CC1)c1ccc(Cl)cc1	%	113
C=CC(=O)N1CCN(c2nc(=O)n(-c3c(C)ccnc3C(C)C)c3nc(-c4c(O)cccc4F)c(F)cc23)C(C)C1 (stereo not given) + CC(C)NCC(C(=O)N1CCN(c2ncnc3c2C(C)CC3O)CC1)c1ccc(Cl)cc1	%	78.3

Which viability, T/C value belongs to Cn1nccc1Nc1nccc(-c2ccn(C(CO)c3ccc(Cl)c(F)c3)c(=O)c2)n1 (stereo not given) + CCN1CCN(Cc2ccc(Nc3ncc(F)c(-c4cc(F)c5nc(C)n(C(C)C)c5c4)n3)nc2)CC1 ?
139

====

System: MCF7 multi-cell spheroids with HUVEC/MSC, viability
ASSAY_REMARKS: Anticancer human tumor MCF7 cell line growth inhibition [IpAb];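 also: spheroids exposed to agents for seven days before readout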
REPORTED_CONDITIONS: second compound 1 µM; first compound 0.0949 µM; hits give low values
Mark 1 only for viability, T/C values smaller than 70%; exact matches and larger values are -1.

COMPOUND	CLASSIFICATION
Cn1cnc2c(F)c(Nc3ccc(Br)cc3Cl)c(C(=O)NOCCO)cc21 + CC(C)NCC(C(=O)N1CCN(c2ncnc3c2C(C)CC3O)CC1)c1ccc(Cl)cc1	1

Strictly below 70% in viability, T/C? Cn1cnc2c(F)c(Nc3ccc(Br)cc3Cl)c(C(=O)NOCCO)cc21 + CCN1CCN(Cc2ccc(Nc3ncc(F)c(-c4cc(F)c5nc(C)n(C(C)C)c5c4)n3)nc2)CC1
-1

Strictly below 70% in viability, T/C? CC(=O)c1c(C)c2cnc(Nc3ccc(N4CCNCC4)cn3)nc2n(C2CCCC2)c1=O + CC(C)NCC(C(=O)N1CCN(c2ncnc3c2C(C)CC3O)CC1)c1ccc(Cl)cc1
1

Strictly below 70% in viability, T/C? CC(=O)c1c(C)c2cnc(Nc3ccc(N4CCNCC4)cn3)nc2n(C2CCCC2)c1=O + CCN1CCN(Cc2ccc(Nc3ncc(F)c(-c4cc(F)c5nc(C)n(C(C)C)c5c4)n3)nc2)CC1
-1

Strictly below 70% in viability, T/C? CC(C)(C)c1cnc(CSc2cnc(NC(=O)C3CCNCC3)s2)o1 + CC(C)NCC(C(=O)N1CCN(c2ncnc3c2C(C)CC3O)CC1)c1ccc(Cl)cc1
1

Strictly below 70% in viability, T/C? CC(C)(C)c1cnc(CSc2cnc(NC(=O)C3CCNCC3)s2)o1 + CCN1CCN(Cc2ccc(Nc3ncc(F)c(-c4cc(F)c5nc(C)n(C(C)C)c5c4)n3)nc2)CC1
1

====

Test system: MCF7 multi-cell spheroids with HUVEC/MSC, viability
ASSAY_REMARKS: Anticancer human tumor MCF7 cell line growth inhibition [IpAb];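 also: spheroids exposed to agents for seven days before readout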
REPORTED_CONDITIONS: second compound 0.1 µM; first compound 3.16 µM; hits give low values
OBSERVATION_TYPE: viability, T/C (%)
Answers are plain numbers, in %.

// solved cases for viability, T/C follow
COMPOUND	READOUT_NUMBER
CCCS(=O)(=O)Nc1ccc(F)c(C(=O)c2c[nH]c3ncc(-c4ccc(Cl)cc4)cc23)c1F + CCN1CCN(Cc2ccc(Nc3ncc(F)c(-c4cc(F)c5nc(C)n(C(C)C)c5c4)n3)nc2)CC1	88.4
Cc1nc(NC(=O)N2CCCC2C(N)=O)sc1-c1ccnc(C(C)(C)C(F)(F)F)c1 (centres undefined) + CCN1CCN(Cc2ccc(Nc3ncc(F)c(-c4cc(F)c5nc(C)n(C(C)C)c5c4)n3)nc2)CC1	56.5
C=CC(=O)N1CCN(c2nc(=O)n(-c3c(C)ccnc3C(C)C)c3nc(-c4c(O)cccc4F)c(F)cc23)C(C)C1 (centres undefined) + CCN1CCN(Cc2ccc(Nc3ncc(F)c(-c4cc(F)c5nc(C)n(C(C)C)c5c4)n3)nc2)CC1	84.4

Next:
Which viability, T/C value belongs to C=CCn1c(=O)c2cnc(Nc3ccc(N4CCN(C)CC4)cc3)nc2n1-c1cccc(C(C)(C)O)n1 + CCN1CCN(Cc2ccc(Nc3ncc(F)c(-c4cc(F)c5nc(C)n(C(C)C)c5c4)n3)nc2)CC1 ?
29

From: PubChem BioAssay AID2060329
